Target: OATP1B3 (Homo sapiens)
Sequence (Q9NPD5 1-702): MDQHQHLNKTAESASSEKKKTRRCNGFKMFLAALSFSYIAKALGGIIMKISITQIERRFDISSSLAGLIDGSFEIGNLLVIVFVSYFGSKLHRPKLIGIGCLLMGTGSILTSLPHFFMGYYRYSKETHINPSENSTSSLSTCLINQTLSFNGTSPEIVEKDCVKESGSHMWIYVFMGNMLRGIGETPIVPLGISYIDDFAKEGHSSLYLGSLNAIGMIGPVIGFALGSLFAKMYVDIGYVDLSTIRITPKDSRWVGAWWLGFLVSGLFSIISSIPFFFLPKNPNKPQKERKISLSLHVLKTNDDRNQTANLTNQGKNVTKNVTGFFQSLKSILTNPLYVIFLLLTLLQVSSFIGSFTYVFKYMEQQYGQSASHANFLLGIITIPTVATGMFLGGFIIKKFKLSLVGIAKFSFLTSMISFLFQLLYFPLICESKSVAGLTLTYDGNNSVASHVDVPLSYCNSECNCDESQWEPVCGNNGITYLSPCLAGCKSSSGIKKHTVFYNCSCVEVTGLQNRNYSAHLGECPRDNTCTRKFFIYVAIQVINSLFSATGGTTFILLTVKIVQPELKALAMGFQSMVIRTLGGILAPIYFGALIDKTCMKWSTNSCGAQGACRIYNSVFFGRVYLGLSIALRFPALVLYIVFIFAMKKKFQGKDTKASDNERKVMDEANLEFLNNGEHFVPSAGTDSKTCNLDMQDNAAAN
Assay: OATP1B3 inhibition assay using 3H-E217βG as probe substrate, HEK293FT cells
Conditions: NIO = no interaction observed
pIC50: −log10 of the molar value.
measured endpoint: pIC50

Query :: GET /values?readout=pIC50&item= O=C(NCc1c(F)cc(F)c(OS(=O)(=O)O)c1F)c1cn2c(c(O)c1=O)C(=O)N1C(C2)O[C@@H]2CC[C@H]1C2 (stereo partly shown) [Metabolite M20]
Result :: < 4.00
